System: KB-3-1
Assay: Cytotoxic Profiling of Annotated Libraries Using Quantitative High-Throughput Screening (AID 1296008); note: % is set by controls: 0 for no effect and ±100 for the full control effect; nearly all actives have a fitted effect of over 60% in size
Conditions: Five cell lines viability, CellTiter-Glo ATP luminescence, 48-72 h; stronger effect = lower value
Description: Cell-based phenotypic screening is a commonly used approach to discover biological pathways, novel drug targets, chemical probes and high-quality hit-to-lead molecules. […] A pintool (Kalypsys) was used to transfer 23 nL of compound solution to the 1536-well assay plates. […] Plates were left at room temperature for 10 min before imaging the ATP-coupled luminescence using a ViewLux microplate imager (PerkinElmer, Waltham, MA).
Inconclusive results are not listed.
measured-endpoint: max response (%)
Answer with a number only, understood to be in %.

As a guide, the following entries are already answered.
CN1CCC[C@@H]1CCO[C@](C)(c1ccccc1)c1ccc(Cl)cc1: -2.14
C/C=C/C=N/NC(=O)c1ccncc1: -15.9

Please report the measured max response for CC(C)(C)NC[C@H](O)COc1cccc2c1CCCC2=O
-2.09

Please report the measured max response for COc1ccc(CN(CCN(C)C)c2ncccn2)cc1
-2.44

Please report the measured max response for Cc1ccccc1OCC(O)CO (stereo not drawn)
1.58

Please report the measured max response for CC(C)(Cc1c[nH]c2ccccc12)NCC(O)COc1ccccc1C#N (stereo not drawn)
19.5

Please report the measured max response for C#C[C@]1(O)CC[C@H]2[C@@H]3CCC4=Cc5oncc5C[C@]4(C)[C@H]3CC[C@@]21C
-24

Please report the measured max response for CCCCC(CC)COC(=O)/C=C/c1ccc(OC)cc1 (stereo not drawn)
15

Please report the measured max response for COc1ccc(C(=O)c2ccccc2)c(O)c1
-18.9
